# assayMethodText: Metal chelating activity of the compound assessed as formation of iron complex by fluorescence quenching assay
# Format: physicochemical

{"molSmiles": "COC(=O)[C@]1(C)CCC[C@]2(C)c3cc(Nc4ccc(OC)cc4)c([N+](=O)[O-])cc3C(=O)C[C@@H]12", "Ka (L/mol)": 165}
{"molSmiles": "COC(=O)[C@]1(C)CCC[C@]2(C)c3cc(Nc4ccccc4)c([N+](=O)[O-])cc3C(=O)C[C@@H]12", "Ka (L/mol)": 106.9}
{"molSmiles": "COC(=O)[C@]1(C)CCC[C@]2(C)c3cc(NC(C)(C)C)c([N+](=O)[O-])cc3C(=O)C[C@@H]12", "Ka (L/mol)": 103.6}
{"molSmiles": "COC(=O)[C@]1(C)CCC[C@]2(C)c3cc(NCCO)c([N+](=O)[O-])cc3C(=O)C[C@@H]12", "Ka (L/mol)": 108}
{"molSmiles": "COC(=O)[C@]1(C)CCC[C@]2(C)c3cc(NCCN)c([N+](=O)[O-])cc3C(=O)C[C@@H]12", "Ka (L/mol)": 305.9}
{"molSmiles": "CNc1cc2c(cc1[N+](=O)[O-])C(=O)C[C@H]1[C@](C)(C(=O)OC)CCC[C@]21C", "Ka (L/mol)": 186}
{"molSmiles": "CCCCNc1cc2c(cc1[N+](=O)[O-])C(=O)C[C@H]1[C@](C)(C(=O)OC)CCC[C@]21C", "Ka (L/mol)": 181.7}
{"molSmiles": "COC(=O)[C@]1(C)CCC[C@]2(C)c3cc(NC(C)C)c([N+](=O)[O-])cc3C(=O)C[C@@H]12", "Ka (L/mol)": 168.3}
